biological target: Interleukin-23 receptor (Homo sapiens); test: Inhibition of interleukin-23 receptor in human DB cells assessed as reduction in IL-23-stimulated STAT3 phosphorylation incubated for 30 mins by HTRF assay; assay type: cell-based
Sequence (Q5VWK5 whole entry): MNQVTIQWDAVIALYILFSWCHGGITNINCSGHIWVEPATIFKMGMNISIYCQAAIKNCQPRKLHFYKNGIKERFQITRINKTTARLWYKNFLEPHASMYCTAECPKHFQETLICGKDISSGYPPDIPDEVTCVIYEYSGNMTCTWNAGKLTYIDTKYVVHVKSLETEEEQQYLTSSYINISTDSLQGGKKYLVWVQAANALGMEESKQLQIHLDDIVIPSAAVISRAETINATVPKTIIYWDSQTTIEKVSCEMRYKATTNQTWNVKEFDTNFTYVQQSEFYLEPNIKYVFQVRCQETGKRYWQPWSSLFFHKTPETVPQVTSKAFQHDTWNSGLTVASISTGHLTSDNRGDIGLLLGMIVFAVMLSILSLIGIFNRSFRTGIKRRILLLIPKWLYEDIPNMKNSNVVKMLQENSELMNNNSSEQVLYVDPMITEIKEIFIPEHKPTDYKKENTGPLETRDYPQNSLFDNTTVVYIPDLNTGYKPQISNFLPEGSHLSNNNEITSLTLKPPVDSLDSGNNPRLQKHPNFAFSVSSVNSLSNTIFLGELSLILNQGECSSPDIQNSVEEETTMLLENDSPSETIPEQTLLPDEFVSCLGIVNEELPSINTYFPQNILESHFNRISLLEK
*1 amine or outer side, *2 acyl side, *3 side chain or, on linkers, in order; H or OH if unused. Where a SMILES comes first, the peptide text is derived from it. Bridges are numbered along the chain shown (N, C = ends). [ ]: non-standard residue; d: D form. Abu(4-yl) = O=C([C@H](CC[*:3])N[*:1])[*:2]; 2Nal = N[C@@H](Cc1ccc2ccccc2c1)C(=O)O; AEF = NCCOc1ccc(C[C@H](N)C(=O)O)cc1; αMeK = C[C@](N)(CCCCN)C(=O)O
Kindly state IC50 for each of the entries shown.

CC(=O)NCCCC[C@H](NC(=O)C(C)(C)NC(=O)[C@H](Cc1ccc2ccccc2c1)NC(=O)[C@H](Cc1ccc(OCCN)cc1)NC(=O)[C@@H](NC(=O)[C@H](CCC(N)=O)NC(=O)[C@H](Cc1c[nH]c2ccccc12)NC(=O)[C@@H](NC(=O)[C@H](CC(N)=O)NC(=O)[C@@H](NC(C)=O)C(C)(C)S)[C@@H](C)O)C(C)(C)S)C(=O)N[C@@H](CC(N)=O)C(=O)N[C@@H](CCC(N)=O)C(N)=O; < 0.01 µM
CC(=O)NCCCC[C@H](NC(=O)C(C)(C)NC(=O)[C@H](Cc1ccc2ccccc2c1)NC(=O)[C@H](Cc1ccc(OCCN)cc1)NC(=O)[C@@H]1CSCC[C@H](NC(C)=O)C(=O)N[C@@H](CCC(N)=O)C(=O)N[C@@H]([C@@H](C)O)C(=O)N[C@@H](Cc2c[nH]c3ccccc23)C(=O)N[C@@H](CCC(N)=O)C(=O)N1)C(=O)N[C@@H](CC(N)=O)C(=O)NCC(N)=O; < 0.01 µM
CC(=O)N[C@@H](CC(C)C)C(=O)N[C@H]1CCSC[C@@H](C(=O)N[C@@H](Cc2ccc(OCCN)cc2)C(=O)N[C@@H](Cc2ccc3ccccc3c2)C(=O)N[C@@](C)(CCCCN)C(=O)N[C@@H](CCC(=O)O)C(=O)N[C@@H](CC(N)=O)C(=O)N[C@@H](CC(N)=O)C(N)=O)NC(=O)[C@H](CCC(N)=O)NC(=O)[C@H](Cc2c[nH]c3ccccc23)NC(=O)[C@H]([C@@H](C)O)NC(=O)[C@H](CCC(N)=O)NC1=O (Ac-L[Abu(4-yl)]QTWQC[AEF][2Nal][αMeK]ENN-NH2; thioether 2-7); < 0.01 µM
CC(=O)NCCCC[C@H](NC(=O)[C@H](CCC(C)C)NC(=O)[C@H](Cc1ccc2ccccc2c1)NC(=O)[C@H](Cc1ccc(OCCN)cc1)NC(=O)[C@@H]1CSCC[C@H](NC(C)=O)C(=O)N[C@@H](CCC(N)=O)C(=O)N[C@@H]([C@@H](C)O)C(=O)N[C@@H](Cc2c[nH]c3ccccc23)C(=O)N[C@@H](CCC(N)=O)C(=O)N1)C(=O)N[C@@H](CC(N)=O)C(=O)NCCC(N)=O; < 0.01 µM

Batch request: IC50 per item, same order as input.
1. CC(=O)NCCCC[C@H](NC(=O)C(C)(C)NC(=O)[C@H](Cc1ccc2ccccc2c1)NC(=O)[C@H](Cc1ccc(OCCNC(C)=O)cc1)NC(=O)[C@@H](NC(=O)[C@H](CCC(N)=O)NC(=O)[C@H](Cc1c[nH]c2ccccc12)NC(=O)[C@@H](NC(=O)[C@H](CCC(N)=O)NC(=O)[C@@H](NC(C)=O)C(C)(C)S)[C@@H](C)O)C(C)(C)S)C(=O)N[C@@H](CC(N)=O)C(=O)N[C@@H](CCC(N)=O)C(N)=O
2. CC(=O)N[C@H]1CCSC[C@@H](C(=O)N[C@@H](Cc2ccc(OCCN)cc2)C(=O)N[C@@H](Cc2ccc3ccccc3c2)C(=O)N[C@@H](CCCN)C(=O)N[C@@H](CN)C(=O)N[C@@H](CC(N)=O)C(=O)NCC(N)=O)NC(=O)[C@H](CCC(N)=O)NC(=O)[C@H](Cc2c[nH]c3ccccc23)NC(=O)[C@H]([C@@H](C)O)NC(=O)[C@H](CCC(N)=O)NC1=O

A.
< 0.01 µM
0.025 to 0.1 µM
